Observed pKd for Human PD‐L1 Fc Protein (Homo sapiens), reported per entry below.
Numbers only, as −log10 of the molar value.

{"columns": ["molecule", "pKd"],
 "data": [
  ["COc1ccc(-c2coc3cc(O)ccc3c2=O)cc1 [Formononetin]", 6.45]
]}

With those in mind, consider the next molecule.
Find the measured pKd of COc1cc(-c2oc3cc(O)cc(O)c3c(=O)c2O)ccc1O [Isorhamnetin] with Human PD‐L1 Fc Protein (Homo sapiens) as test system.
Sequence (Q9NZQ7 19-238 limits assumed): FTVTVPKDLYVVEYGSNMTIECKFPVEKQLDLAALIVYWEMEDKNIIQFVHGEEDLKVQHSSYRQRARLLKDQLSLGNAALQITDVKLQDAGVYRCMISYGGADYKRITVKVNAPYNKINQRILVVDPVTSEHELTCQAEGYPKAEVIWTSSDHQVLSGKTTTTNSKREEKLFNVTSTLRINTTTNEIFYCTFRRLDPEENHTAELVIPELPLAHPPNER
6.18

###

Tested on: MKN‐45 cells
test-method-notes: CCK‐8 cytotoxicity / proliferation assay
Type: cell-based, human
run-conditions: Homo sapiens, MKN-45, 72 h, read-out: IC50 (cytotoxic activity)
quantity-kind: pIC50
Numbers only, as −log10 of the molar value.

Check out these entries, answers already filled in.
{"columns": ["cpd-smiles", "quantity-kind", "measurement"],
 "data": [
  ["O=c1c(-c2ccc(O)cc2)coc2cc(O)ccc12", "pIC50", 4.67],
  ["COc1cc(-c2oc3cc(O)cc(O)c3c(=O)c2O)ccc1O", "pIC50", 4.96]
]}

With those in mind, consider the next compound.
Find the measured pIC50 of O=c1c(O)c(-c2ccc(O)c(O)c2)oc2cc(O)cc(O)c12 with MKN‐45 cells as test system.
4.72

Reference source for all entries: paper PMC8088928
